Experiment: AUC (infinity) in C57BL/6 mouse at 30 mg/kg, po measured for 24 hrs by HPLC analysis
Format: ADME, organism-based
Conditions: in vivo
experimentalReadout: AUC(0-inf) (µg·h/mL)
Number only, in µg·h/mL; omit the unit.

The compound listed as CO[C@@H]1[C@@H](n2cc(-c3csc(O)n3)nn2)[C@@H](O)[C@@H](CO)O[C@@H]1Sc1ccc(Cl)c(Cl)c1 shows AUC(0-inf) equal to 148

----------
Kd listing for selected molecules.
Target: Galectin-1 (Homo sapiens, UniProt P09382)
Sequence (P09382 whole entry): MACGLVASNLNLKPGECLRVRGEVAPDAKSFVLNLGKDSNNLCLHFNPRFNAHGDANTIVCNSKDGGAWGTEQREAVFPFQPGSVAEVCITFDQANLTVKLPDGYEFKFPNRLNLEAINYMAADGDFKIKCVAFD
Experiment: Binding affinity to human galectin-1 assessed as dissociation constant by fluorescein probe based fluorescence polarization assay
Number only, in µM; omit the unit.

Here's what some known entries look like.
> print(dat)
                            substancesmiles  experimentalreadout  result
1  COc1nc(-c2cn([C@@H]3[C@@H](O)[C@@H](Sc4cc(Cl)c(F)c(Cl)c4)O[C@H](CO)[C@@H]3O)nn2)cs1                   Kd    1.58
2  Nc1csc(-c2cn([C@@H]3[C@@H](O)[C@@H](Sc4cc(Cl)c(F)c(Cl)c4)O[C@H](CO)[C@@H]3O)nn2)n1                   Kd    0.62
3  CN(C)c1nc(-c2cn([C@@H]3[C@@H](O)[C@@H](Sc4cc(Cl)c(F)c(Cl)c4)O[C@H](CO)[C@@H]3O)nn2)cs1                   Kd    3.43

The molecule listed as CNc1nc(-c2cn([C@@H]3[C@@H](O)[C@@H](Sc4cc(Cl)c(F)c(Cl)c4)O[C@H](CO)[C@@H]3O)nn2)cs1 shows Kd equal to 1.36
